All figures here come from patent US20220267421A1.

Measured Target: T1, human MSLN-His-Avi (human, UniProt Q13421 296-598, single biotin (BirA) in the biotinylated form)
T1 construct: Monomeric, made in HEK293-6E; Used both immobilised and in solution; also called hMSLN-His-Avi; biotinylated hMSLN-His-Avi
T1 sequence (Q13421 other isoform, or with tags, fused parts or gaps): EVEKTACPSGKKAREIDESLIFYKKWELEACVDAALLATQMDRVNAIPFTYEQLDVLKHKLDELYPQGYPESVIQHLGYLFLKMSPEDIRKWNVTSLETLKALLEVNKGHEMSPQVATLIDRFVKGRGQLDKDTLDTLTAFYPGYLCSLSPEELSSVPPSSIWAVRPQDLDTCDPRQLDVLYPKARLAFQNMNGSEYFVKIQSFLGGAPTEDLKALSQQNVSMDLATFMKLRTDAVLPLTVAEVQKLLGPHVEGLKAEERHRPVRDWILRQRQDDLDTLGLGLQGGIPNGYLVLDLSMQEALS
Experiment Notes: ratio of the two SPR KD
Experimental: Human MSLN-His-Avi was immobilised on flow cell 2 on a CM5 Series S BIAcore sensor chip (GE Healthcare, BR100530) using an amine coupling kit (GE Healthcare, BR10050) to approximately 200 response units (RU). […] Subtracted data (flow cell 2−flow cell 1) were analysed using BIAevaluation 3.2 Software (GE Healthcare). Binding of the selected anti-MSLN clones in mAb² format, to recombinant human and cyno MSLN-His-Avi antigen was measured by SPR using a Biacore T200 processing unit (GE Healthcare). […]
Please use true (1) for Ratio of KD in solution/immobilised for human MSLN-His-Avi under 40 and false (0) for everything else, ties included.

{"columns": ["Binder", "Group Label"],
 "data": [
  ["FS22-053-008-AA/FS28-256-027 mAb^2 (bispecific antibody, human IgG1, kappa, L234A L235A, V domains shown) VH: EVQLLESGGGLVQPGGSLRLSCAASGFTFTHTYMSWVRQAPGKGLEWVSNISPTYSTTNYADSVKGRFTISRDNNKNTLYLQMNSLRAEDTAVYYCARYNAYHAALDYWGQGTLVTVSS VL: EIVLTQSPGTLSLSPGERATLSCRASQSVSSSYLAWYQQKPGQAPRLLIYGASSRATGIPDRFSGSGSGTDFTLTISRLEPEDFAVYYCQQTVPYPYTFGQGTKVEIKR", "true (1)"],
  ["FS22-053-008-AA/FS28-024-052 mAb^2 (bispecific antibody, human IgG1, kappa, L234A L235A, V domains shown, also called FS28-024-52) VH: EVQLLESGGGLVQPGGSLRLSCAASGFTLSYSSMSWVRQAPGKGLEWVSFITPSTGYTHYADSVKGRFTISRDNSKNTLYLQMNSLRAEDTAVYYCARRALLFDYWGQGTLVTVSS VL: EIVLTQSPGTLSLSPGERATLSCRASQSVSSSYLAWYQQKPGQAPRLLIYGASSRATGIPDRFSGSGSGTDFTLTISRLEPEDFAVYYCQQASSYPLTFGQGTKVEIKR", "false (0)"],
  ["FS22-053-008-AA/FS28-256-021 mAb^2 (bispecific antibody, human IgG1, kappa, L234A L235A, V domains shown) VH: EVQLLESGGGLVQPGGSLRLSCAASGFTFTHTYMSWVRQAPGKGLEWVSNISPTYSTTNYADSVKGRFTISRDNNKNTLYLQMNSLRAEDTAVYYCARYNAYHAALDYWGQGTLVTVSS VL: EIVLTQSPGTLSLSPGERATLSCRASQSVSSSYLAWYQQKPGQAPRLLIYGASSRATGIPDRFSGSGSGTDFTLTISRLEPEDFAVYYCQQHNQYPNTFGQGTKVEIKR", "true (1)"],
  ["FS22-053-008-AA/FS28-256 (bispecific antibody, human IgG1, kappa, L234A L235A, V domains shown) VH: EVQLLESGGGLVQPGGSLRLSCAASGFTFTNTYMSWVRQAPGKGLEWVSNISPTYSTTNYADSVKGRFTISRDNSKNTLYLQMNSLRAEDTAVYYCARYNSYQGGLDYWGQGTLVTVSS VL: EIVLTQSPGTLSLSPGERATLSCRASQSVSSSYLAWYQQKPGQAPRLLIYGASSRATGIPDRFSGSGSGTDFTLTISRLEPEDFAVYYCQQSYYYPITFGQGTKVEIKR", "true (1)"],
  ["FS22-053-008-AA/FS28-256-023 mAb^2 (bispecific antibody, human IgG1, kappa, L234A L235A, V domains shown) VH: EVQLLESGGGLVQPGGSLRLSCAASGFTFTQTYMSWVRQAPGKGLEWVSNISPTYSTTNYADSVKGRFTISRDNSKNTLYLQMNSLRAEDTAVYYCARYNAYQIGLDYWGQGTLVTVSS VL: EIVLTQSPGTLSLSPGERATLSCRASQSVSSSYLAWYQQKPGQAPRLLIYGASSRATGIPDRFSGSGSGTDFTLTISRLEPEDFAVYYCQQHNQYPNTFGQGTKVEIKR", "true (1)"],
  ["FS22-053-008-AA/FS28-256-012 mAb^2 (bispecific antibody, human IgG1, kappa, L234A L235A, V domains shown) VH: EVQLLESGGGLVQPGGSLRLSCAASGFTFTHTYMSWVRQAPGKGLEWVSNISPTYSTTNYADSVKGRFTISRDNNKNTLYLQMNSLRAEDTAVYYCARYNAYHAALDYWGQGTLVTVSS VL: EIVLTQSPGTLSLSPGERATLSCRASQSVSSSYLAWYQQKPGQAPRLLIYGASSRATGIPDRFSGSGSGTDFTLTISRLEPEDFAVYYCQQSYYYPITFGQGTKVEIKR", "false (0)"]
]}
